- Subject of test: human IRAK4 kinase domain (aa 154-460) (Homo sapiens (Human))
- Sequence (Q9NWZ3 154-460): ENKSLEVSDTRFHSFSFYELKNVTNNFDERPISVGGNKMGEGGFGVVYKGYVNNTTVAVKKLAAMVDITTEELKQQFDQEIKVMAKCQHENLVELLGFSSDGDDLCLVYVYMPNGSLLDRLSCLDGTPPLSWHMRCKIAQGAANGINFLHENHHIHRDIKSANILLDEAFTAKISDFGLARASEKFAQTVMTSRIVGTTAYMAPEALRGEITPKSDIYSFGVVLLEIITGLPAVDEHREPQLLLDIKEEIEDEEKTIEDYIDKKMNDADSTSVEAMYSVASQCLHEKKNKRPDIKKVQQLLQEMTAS
- Test details: IRAK4 Enzymatic DELFIA Assay, Protocol B
- Assay type: biochemical
- Protocol conditions: human IRAK4 kinase domain (aa 154-460), 0.6 mM ATP (KM); read-out: IRAK4 DELFIA Protocol B IC50

{"Molecule": "CC(C)Oc1cc2c(OC[C@@]34CNCC[C@@H]3C4)nccc2cc1C(N)=O", "Subject of test": "human IRAK4 kinase domain (aa 154-460) (Homo sapiens (Human))", "IC50 (nM)": 88}
{"Molecule": "CC(C)Oc1cc2c(OC[C@]34CNC(=O)[C@H]3C4)nccc2cc1C(N)=O", "Subject of test": "human IRAK4 kinase domain (aa 154-460) (Homo sapiens (Human))", "IC50 (nM)": 101}
{"Molecule": "CC(C)Oc1cc2c(O[C@H]3C[C@@H]4C[C@H]3CN4C(=O)CC#N)nccc2cc1C(N)=O", "Subject of test": "human IRAK4 kinase domain (aa 154-460) (Homo sapiens (Human))", "IC50 (nM)": 43}
{"Molecule": "CC(C)Oc1cc2c(OCC3CN(C)CCO3)nccc2cc1C(N)=O (stereo not drawn)", "Subject of test": "human IRAK4 kinase domain (aa 154-460) (Homo sapiens (Human))", "IC50 (nM)": 4260}
{"Molecule": "CC(C)Oc1cc2c(OC3CC[C@@H]4CNC[C@H]34)nccc2cc1C(N)=O (stereo partly drawn)", "Subject of test": "human IRAK4 kinase domain (aa 154-460) (Homo sapiens (Human))", "IC50 (nM)": 102}
{"Molecule": "CC(C)Oc1cc2c(OC[C@@H]3COCCN3C(=O)CC#N)nccc2cc1C(N)=O", "Subject of test": "human IRAK4 kinase domain (aa 154-460) (Homo sapiens (Human))", "IC50 (nM)": 175}
